Hi there, I'd appreciate the recorded selectivity ratio for every entry that follows.
assay-remarks: Selectivity index, ratio of IC50 against human WI38 cells to IC50 for Plasmodium falciparum 3D7
Format: toxicity, cell-based, WI-38
condition-details: read-out: Ratio IC50
Numbers only.

Here's what some known entries look like.
structure-smiles-string | selectivity ratio
C=C[C@H]1CN2CC[C@H]1C[C@@H]2[C@@H](O)c1cc(CC[C@@H](C)[C@H]2CC[C@H]3[C@@H]4[C@H](OC(C)=O)C[C@@H]5C[C@H](OC(C)=O)CC[C@]5(C)[C@H]4C[C@H](OC(C)=O)[C@]23C)nc2ccccc12 | 97
C=C[C@H]1CN2CC[C@H]1C[C@H]2[C@H](O)c1cc(CC[C@@H](C)[C@H]2CC[C@H]3[C@@H]4C[C@H](O)[C@@H]5C[C@H](O)CC[C@]5(C)[C@H]4CC[C@]23C)nc2ccc(OC)cc12 | 21
C=C[C@H]1CN2CC[C@H]1C[C@@H]2[C@@H](O)c1cc(CC[C@@H](C)[C@H]2CC[C@H]3[C@@H]4[C@H](O)C[C@@H]5C[C@H](O)CC[C@]5(C)[C@H]4C[C@H](O)[C@]23C)nc2ccc(OC)cc12 | 17
C=C[C@H]1CN2CC[C@H]1C[C@@H]2[C@@H](O)c1cc(CC[C@@H](C)[C@H]2CC[C@H]3[C@@H]4[C@H](OC(C)=O)C[C@@H]5C[C@H](OC(C)=O)CC[C@]5(C)[C@H]4C[C@H](OC(C)=O)[C@]23C)nc2ccc(OC)cc12 | 56

Could you now look at the following molecule, please?
# selectivity ratio (molecule: C=C[C@H]1CN2CC[C@H]1C[C@H]2[C@H](O)c1cc(CC[C@@H](C)[C@H]2CC[C@H]3[C@@H]4C[C@H](O)[C@@H]5C[C@H](O)CC[C@]5(C)[C@H]4CC[C@]23C)nc2ccccc12 ) is 36

----------
Hi there, I'd appreciate the recorded pIC50 for every entry that follows.
assay-remarks: Cytotoxicity against human WI38 cells by MTT assay
Type: cell-based, WI-38
condition-details: Homo sapiens, WI-38; read-out: IC50
Give bare numbers, as −log10 of the molar value.

Here's what some known entries look like.
compound | pIC50
CC[C@@]1(O)C(=O)OCc2c1cc1n(c2=O)Cc2cc3ccccc3nc2-1 [CAMPTOTHECIN] | 6.64
C=C[C@H]1CN2CC[C@H]1C[C@H]2[C@H](O)c1cc(CC[C@@H](C)[C@H]2CC[C@H]3[C@@H]4C[C@H](OC(C)=O)[C@@H]5C[C@H](OC(C)=O)CC[C@]5(C)[C@H]4CC[C@]23C)nc2ccccc12 | 5.38
C=C[C@H]1CN2CC[C@H]1C[C@H]2[C@H](O)c1cc(CC[C@@H](C)[C@H]2CC[C@H]3[C@@H]4[C@H](OC(C)=O)C[C@@H]5C[C@H](OC(C)=O)CC[C@]5(C)[C@H]4C[C@H](OC(C)=O)[C@]23C)nc2ccccc12 | 5.17
C=C[C@H]1CN2CC[C@H]1C[C@@H]2[C@@H](O)c1ccnc2ccc(OC)cc12 [QUINIDINE] | 4.46
C=C[C@H]1CN2CC[C@H]1C[C@@H]2[C@@H](O)c1cc(CC[C@@H](C)[C@H]2CC[C@H]3[C@@H]4C[C@H](O)[C@@H]5C[C@H](O)CC[C@]5(C)[C@H]4CC[C@]23C)nc2ccc(OC)cc12 | 5.66

Look up pIC50 for the entries below, preserving their order.
1. C=C[C@H]1CN2CC[C@H]1C[C@@H]2[C@@H](O)c1cc(CC[C@@H](C)[C@H]2CC[C@H]3[C@@H]4[C@H](O)C[C@@H]5C[C@H](O)CC[C@]5(C)[C@H]4C[C@H](O)[C@]23C)nc2ccccc12
2. C=C[C@H]1CN2CC[C@H]1C[C@@H]2[C@@H](O)c1cc(CC[C@@H](C)[C@H]2CC[C@H]3[C@@H]4[C@H](OC(C)=O)[C@H](OC(C)=O)[C@@H]5C[C@H](OC(C)=O)CC[C@]5(C)[C@H]4CC[C@]23C)nc2ccccc12
3. C=C[C@H]1CN2CC[C@H]1C[C@H]2[C@H](O)c1cc(CC[C@@H](C)[C@H]2CC[C@H]3[C@@H]4[C@H](O)C[C@@H]5C[C@H](O)CC[C@]5(C)[C@H]4C[C@H](O)[C@]23C)nc2ccccc12
4. C=C[C@H]1CN2CC[C@H]1C[C@H]2[C@H](O)c1cc(CC[C@@H](C)[C@H]2CC[C@H]3[C@@H]4[C@H](O)C[C@@H]5C[C@H](O)CC[C@]5(C)[C@H]4C[C@H](O)[C@]23C)nc2ccc(OC)cc12

Data returned:
1. 5.25
2. 5.38
3. 5.09
4. 4.71
